# measurement target: KRasWT1-169 (Homo sapiens)
# Sequence (P01116 1-169): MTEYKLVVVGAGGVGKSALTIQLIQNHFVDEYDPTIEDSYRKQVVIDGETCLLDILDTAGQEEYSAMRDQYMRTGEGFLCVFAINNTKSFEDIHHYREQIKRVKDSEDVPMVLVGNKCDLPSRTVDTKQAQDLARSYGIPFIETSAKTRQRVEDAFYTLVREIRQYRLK
# test: HPLC-based approach for determination of affinities relative to GDP
# Assay type: binding
# particulars: +SOS, 1 hr at room temperature
pKd: −log10 of the molar value.
observed property: pKd

>>> df
                                chem_smiles  endpoint_result
0  C=CC(=O)NCCCNC(=O)O[C@H]1[C@@H](O)[C@H](n2cnc3c(=O)[nH]c(N)nc32)O[C@@H]1COP(=O)(O)OP(=O)(O)O            10.98
1  C=CC(=O)NCCCCNC(=O)O[C@H]1[C@@H](O)[C@H](n2cnc3c(=O)[nH]c(N)nc32)O[C@@H]1COP(=O)(O)OP(=O)(O)O            11.00
